Test System: Solute carrier family 22 member 1 (Homo sapiens, UniProt O15245)
Sequence (O15245 whole entry): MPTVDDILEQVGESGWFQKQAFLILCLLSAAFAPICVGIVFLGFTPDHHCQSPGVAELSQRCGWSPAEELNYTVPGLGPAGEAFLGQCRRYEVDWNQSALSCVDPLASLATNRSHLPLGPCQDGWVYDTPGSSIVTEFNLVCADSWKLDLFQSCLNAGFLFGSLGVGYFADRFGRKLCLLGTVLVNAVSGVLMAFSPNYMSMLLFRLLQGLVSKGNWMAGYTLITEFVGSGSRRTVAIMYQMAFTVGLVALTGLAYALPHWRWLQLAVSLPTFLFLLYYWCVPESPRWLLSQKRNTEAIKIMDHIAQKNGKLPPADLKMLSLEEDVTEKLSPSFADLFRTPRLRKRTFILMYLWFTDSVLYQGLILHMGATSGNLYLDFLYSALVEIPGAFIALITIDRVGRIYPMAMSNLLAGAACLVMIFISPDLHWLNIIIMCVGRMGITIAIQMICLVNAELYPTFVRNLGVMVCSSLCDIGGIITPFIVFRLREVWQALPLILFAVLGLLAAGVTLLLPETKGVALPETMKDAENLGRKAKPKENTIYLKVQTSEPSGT
Assay Notes: TP_TRANSPORTER: inhibition of Cimetidine uptake (Cimetidine: 1 uM) in Xenopus laevis oocytes
Measured Metric: pIC50
API: returns pIC50 as number; meaning -log10 of concentration in mol/L.

Data point: [H]/N=C(/N)N/C(=N/[H])NCCc1ccccc1 [PHENFORMIN] ; pIC50 = 5.00

---

Test System: UniProt O15244
Sequence (O15244 whole entry): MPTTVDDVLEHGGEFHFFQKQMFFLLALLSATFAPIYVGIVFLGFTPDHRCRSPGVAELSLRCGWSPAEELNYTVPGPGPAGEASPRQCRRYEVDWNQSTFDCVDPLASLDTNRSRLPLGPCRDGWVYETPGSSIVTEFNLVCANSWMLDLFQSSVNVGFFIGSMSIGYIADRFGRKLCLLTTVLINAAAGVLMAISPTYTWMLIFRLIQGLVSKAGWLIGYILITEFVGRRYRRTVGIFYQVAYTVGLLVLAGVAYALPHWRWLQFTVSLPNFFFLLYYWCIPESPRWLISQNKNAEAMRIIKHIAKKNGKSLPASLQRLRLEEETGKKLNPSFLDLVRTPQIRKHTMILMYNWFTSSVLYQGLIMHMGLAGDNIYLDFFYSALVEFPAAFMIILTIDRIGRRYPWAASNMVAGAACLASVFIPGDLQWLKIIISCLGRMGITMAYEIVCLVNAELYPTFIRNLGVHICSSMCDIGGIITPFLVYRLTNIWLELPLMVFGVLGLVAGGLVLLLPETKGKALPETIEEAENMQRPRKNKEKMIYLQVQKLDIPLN
Assay Notes: TP_TRANSPORTER: inhibition of Cimetidine uptake (Cimetidine: 1 uM) in Xenopus laevis oocytes
Type: functional, cell-based, Oocyte
Quick reference: pIC50 of the listed items.
pIC50 here is simply -log10 of the concentration when that concentration is written in mol/L.

[H]/N=C(/N)N/C(=N/[H])NCCc1ccccc1 [PHENFORMIN] | 4.19

The measured pIC50 that CN(C)C(=N)N=C(N)N [METFORMIN] showed for UniProt O15244 is 2.77

Sourced from ChEMBL document CHEMBL2073978
